Target: T1, Full length human TfR on CHO cells (human, UniProt P02786 1-760)
T1 construct: also called CHO + huTfR; CHO + hTfR
T1 sequence (P02786 whole entry): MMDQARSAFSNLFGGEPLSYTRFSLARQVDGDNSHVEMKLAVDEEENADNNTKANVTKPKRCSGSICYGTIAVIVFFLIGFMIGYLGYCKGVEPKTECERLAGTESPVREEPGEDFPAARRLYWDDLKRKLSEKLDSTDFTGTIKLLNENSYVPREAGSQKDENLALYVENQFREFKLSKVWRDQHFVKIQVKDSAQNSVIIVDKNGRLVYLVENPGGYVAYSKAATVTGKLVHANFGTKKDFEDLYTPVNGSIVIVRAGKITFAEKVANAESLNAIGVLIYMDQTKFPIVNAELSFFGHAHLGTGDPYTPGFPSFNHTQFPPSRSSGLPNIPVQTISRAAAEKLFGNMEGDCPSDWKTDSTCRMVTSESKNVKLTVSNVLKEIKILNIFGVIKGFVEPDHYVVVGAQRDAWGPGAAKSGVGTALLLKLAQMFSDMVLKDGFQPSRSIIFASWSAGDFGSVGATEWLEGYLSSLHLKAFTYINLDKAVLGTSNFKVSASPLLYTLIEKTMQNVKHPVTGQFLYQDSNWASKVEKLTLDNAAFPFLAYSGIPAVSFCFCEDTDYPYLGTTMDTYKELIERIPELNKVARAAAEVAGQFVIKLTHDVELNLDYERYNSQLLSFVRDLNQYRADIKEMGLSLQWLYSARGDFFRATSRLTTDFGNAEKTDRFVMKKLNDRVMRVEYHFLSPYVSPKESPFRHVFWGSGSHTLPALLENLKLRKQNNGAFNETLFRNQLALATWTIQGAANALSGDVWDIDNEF
Assay: FACS MFI, supernatant
Examples of binders with documented fold over parental (CHO WT) follow.
reportedMetric: fold over parental (CHO WT) (fold)

>  <binder>
TfR6 (mouse hybridoma antibody) (antibody, V domains shown, mouse IgG in hybridoma supernatant) VH: DVQLVESGGGLVQPGGSRKLSCAASGFTFSSFGMHWVRQAPEKGLEWVAYISSGSSAIYYADTVKGRFTVSRDNPKNTLFLQMTSLRSEDTAIYYCATSYVYDPPWFAYWGQGTLVTVSA VL: DIVMTQSHKFMSTSVGDRVSITCKASQDVSTAVAWYQQKPGQSPKLLIYWASTRPTGVPDRFTGSGSGTDYTLTISSVQAEDLALYSCQQHFSTPWTFGGGTKLEIK

>  <reportedMetric>
fold over parental (CHO WT)

>  <readoutUnits>
fold

>  <valueMeasured>
451

$$$$
>  <binder>
TfR16 (mouse hybridoma antibody) (antibody, V domains shown, mouse IgG in hybridoma supernatant) VH: EVQLQQSGTVLARPGASVKMSCKTSGYSFSSYWMHWVKQRPGQGLEWIGTIYPGNSDTIYNQNFKGKAKLTAVTSASTAYMELSSLTNEDSAVYYCSTIYYFSNWGQGTTLTVSS VL: DIKMTQSPSPMFASLGERVTITCKASQDINSYLSWFQQKPGKSPKTLIYRANRLLDGVPSRFSGSGSGQDYSLTISSLDYEDVGIYYCLQYDVFPYTFGGGTKLEIK

>  <reportedMetric>
fold over parental (CHO WT)

>  <readoutUnits>
fold

>  <valueMeasured>
534

$$$$
